Tested on: NCI-H226 lung
Experiment: NCI tumour cell line growth inhibition, 48 h
readout_type: TGI

# molecule, study_system, readout_type, result
rows = [
    ("O=c1[nH]c(=O)n(C2CC(O)C(COP(=O)(OCC(Cl)(Cl)Cl)OCC(Cl)(Cl)Cl)O2)cc1F (stereo not drawn)", "NCI-H226 lung", "TGI", "> 100 µM"),
    ("CSc1cc(C(C)(C)C)ccc1C(O)c1ccc(C(C)(C)C)cc1SC", "NCI-H226 lung", "TGI", "27 µM"),
    ("Cc1ccc(C2C3Cc4ccccc4C3=NN2c2ccc(S(=O)(=O)NC(=O)Nc3ccccc3)cc2)cc1 (stereo not drawn)", "NCI-H226 lung", "TGI", "49.2 µM"),
    ("NC(=O)c1ncn2c(=O)n(CCCl)nnc12", "NCI-H226 lung", "TGI", "425 µM"),
    ("C1=Cc2cccc3occ(c23)C=C1", "NCI-H226 lung", "TGI", "> 100 µM"),
    ("COC(=O)CNC(=O)CSc1nnc(COc2ccc(Cl)cc2)n1-c1ccccc1", "NCI-H226 lung", "TGI", "> 100 µM"),
    ("C[C@H]1S[C@H](c2c(F)cccc2F)n2c1nc1ccccc12", "NCI-H226 lung", "TGI", "> 100 µM"),
    ("Nc1cc(N)c2nc(-c3ccccc3)c(NCc3ccc(Cl)c(Cl)c3)nc2c1", "NCI-H226 lung", "TGI", "46.3 µM"),
    ("COc1ccc(NC(/C(C(=O)C(=O)/C=C(\\O)c2ccccc2)=C(\\O)c2ccccc2)c2ccc(OC)cc2)cc1 (stereo not drawn)", "NCI-H226 lung", "TGI", "> 100 µM"),
    ("COc1cc(OC)nc(-n2c(N)c(C(=O)O)c3ccc([N+](=O)[O-])cc3c2=O)n1", "NCI-H226 lung", "TGI", "> 100 µM"),
]

Here are 8 molecules. What values of TGI were reported for them?
1. COc1cc(-c2ccccc2)cn2c1nc1ccccc12
2. CCS(=O)(=O)N1CCN(c2ccc(Nc3ncc(C(N)=O)c(NC4CC4)n3)cc2)CC1
3. O=C1c2ccccc2C(=O)c2sc(Nc3ccc([N+](=O)[O-])cc3)nc21
4. N#Cc1c(N)c2c(c(-c3ccccc3)c1-c1ccccc1)C(=O)N(O)C2=O
5. N#CC(C#N)=C1CCC2C(=C(C#N)C#N)CCC12 (stereo not drawn)
6. O=C(CCN1CCCC1)c1ccc(Oc2ccc(F)cc2)cc1
7. Nc1ncc2c(n1)-c1ccccc1OC2N1CCOCC1 (stereo not drawn)
8. CC(=N/NC(N)=S)/C(C)=N/NC(N)=S

result:
39.7 µM
35.9 µM
35.9 µM
62.8 µM
> 100 µM
> 100 µM
> 100 µM
> 100 µM

Here are 2 molecules. What values of TGI were reported for them?
1. Nn1c(CCCCCCCCc2n[nH]c(=S)n2N)n[nH]c1=S
2. CC(C)(C)NC(=S)N/N=C/c1ccccn1

result:
["> 100 µM", "> 25.9 µM"]

Here are 2 molecules. What values of TGI were reported for them?
1. N#CCCN(CCC#N)c1ccc(/C=C(/NC(=O)Nc2ccccc2Cl)NC(=O)c2cc([N+](=O)[O-])ccc2Cl)cc1
2. Cc1cn(C2CC(O)C(COC(N)=O)O2)c(=O)[nH]c1=O (stereo not drawn)

result:
> 100 µM
> 100 µM

Here are 5 molecules. What values of TGI were reported for them?
1. CCCCNCCCCCNc1cc(OC)cc2cccnc12
2. O=c1[nH]c2ccccc2n1C1CCN(CCOc2ccccc2)CC1
3. NCCCNc1nc2ccccc2c2c(=O)c3cc(F)cc(Cl)c3sc12
4. Nc1ncnc2c1ncn2CCCCC(=O)O
5. COC(=O)[C@@H]1[C@H]2CC[C@]3(C)[C@@H](OC(C)=O)CC[C@H]3[C@@H]2CC[C@H]1C(C)=O

result:
["64.5 µM", "> 100 µM", "23.7 µM", "> 100 µM", "> 100 µM"]

src = PubChem BioAssay (NCI)
